Form field: switch fluorescence ratio (one value per entry).
System: ATP;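 also: ATP exposure 15 min at 22 °C before imaging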
Assay: switch fluorescence ratio, 500 uM ATP over buffer (Cy3 cluster intensity, sum of 5 cycles each) (fold (ratio)); higher = stronger signal-on switching upon ATP binding; sequences stand for … in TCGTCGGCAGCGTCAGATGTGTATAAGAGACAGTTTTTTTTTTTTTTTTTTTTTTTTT…TC
Conditions: aptamer strand: ATP DNA aptamer (quencher-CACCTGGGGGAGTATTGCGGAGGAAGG + anchor), 100 nM annealed; ATP concentration: 500 uM
Outcome Measure: switch fluorescence ratio

    chain_sequence  observed
 0       ATGGTTTTG     0.975
 1      ATAAATGACG      1.02
 2      AATACATCGG     0.999
 3      GGTAGTCCGT      1.03
 4      CCAGGGGGCA      1.13
 5       AGGTATTGG      1.01
 6       TTCATTTTG      1.01
 7      AAGATCATAA     0.994
 8      CGGGTGACGA      1.03
 9      TTGTGTCTTT     0.986
10      GGTTTTTGTA     0.995
11      GTGATACCGT      0.99
12      AGTTAGGTGT      1.04
13      TTGGTTACAG     0.978
14      GATAAAAATA     0.998
15      ACTTAGAAAT      1.05
16      TACATGTAGC     0.986
17      TACAGAATGG     0.991
18      GATGGGCGGT     0.977
19      GGAGAGGCAG     0.975
20      TTGTGTTCTT      1.01
21      TGGGCTACTC       1.1
22      TATATGGGAT      1.01
23       TTGTTAGTT      1.02
24      AGTTTAACTA         1
25      AACTGGGAGA     0.989
26      TGCAGGAATG      2.17
27      ACTTCACTGC      1.34
28      CAGATAGAAG     0.999
29      CATAATTGTA     0.979
30      GTCGCTTAGT     0.973
31      AGGGGGCGCA     0.991
32      ATCTGCCTTG         1
33      AAAGGGGGGA     0.995
34      ATATTTGATT     0.977
35      ATTTGTAAGA     0.993
36      TGGGGTTGGA      1.01
37      TAACGGCATT      1.08
38      TTTACGGGGC         1
39      GCTGGGAGTT         1
40      GCCGTAGTCG      1.03
41      ATAACAGGAT     0.986
42      ATAGAAATTG      1.01
43        TATATTTG     0.988
44      TTAGACATAT      1.02
45      CAAGGGGTAA     0.952
46      GCGGGTTTGG      1.01
47      TCGTTTTGGG     0.999
48      CCAGTAGTCC      1.14
49      GATTCTTGTC      1.01
50      TGCGAAATTT     0.965
51      TTAAGTCCGC      1.17
52      ACGCCACTGT      1.71
53      TAATACTCCT      2.05
54      TCGTTTTGCA     0.991
55      TCGGCTGTAT      1.69
56      GTTTGTTTAA     0.981
57      TCGTTGCAGG      1.05
58      AATGATATCA      1.01
59       TTTTTATTG      1.02
60      GCGGATGAGA      1.06
61      TCATGCCCTT      1.02
62      AAATGCGGCC         1
63      CGTTTGAGTG      1.02
64      GGATAGGAGC     0.964
65      ATGGTGGGGC     0.979
66      CTGACATGAG         1
67      ATATGTGAGG     0.985
68      TTAGGTTGTA     0.974
69      AGCAACATTG      1.01
70      TGTATTCAAT     0.986
71      TCGCGTGTTG      1.02
72      AGCAGTGTGC     0.998
73      TTCGTATACC     0.988
74      GCAGGGGGGT      1.01
75      TCTGGGGTTA         1
76      TCCGTAAATT      1.14
77      GGATGCTGGT      1.04
78      GGCCTTAAGT     0.991
79      GCGAGAACGG      1.01
80      TTATCAGGGG      1.08
81      TGTAGAGGTG      1.09
82      ATTCATGGGA      1.02
83      GGAAATTTTT     0.973
84      ACGAATTGTT     0.985
85      GACTTACGTT      1.22

---

// reported switch fluorescence ratio per item
Tested on: ATP;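 also: ATP exposure 15 min at 22 °C before imaging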
Assay: switch fluorescence ratio, 500 uM ATP over buffer (Cy3 cluster intensity, sum of 5 cycles each) (fold (ratio)); higher = stronger signal-on switching upon ATP binding; sequences stand for … in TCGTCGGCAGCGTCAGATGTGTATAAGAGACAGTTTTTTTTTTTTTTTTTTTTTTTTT…TC
Conditions: aptamer strand: ATP DNA aptamer (quencher-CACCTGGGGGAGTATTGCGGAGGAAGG + anchor), 100 nM annealed; ATP concentration: 500 uM
Outcome Measure: switch fluorescence ratio

In [3]: df
Out[3]:
    chain_sequence            outcome_measure  observed
 0      AAGGATTATT  switch fluorescence ratio      0.97
 1      GGATGAGGTT  switch fluorescence ratio     0.982
 2      TTCGGTACGT  switch fluorescence ratio     0.999
 3      CTCGGGCAGG  switch fluorescence ratio      1.01
 4      GGCACTTCCA  switch fluorescence ratio      1.03
 5      ATGAGGGCGG  switch fluorescence ratio      0.98
 6      AGTAAATCTC  switch fluorescence ratio      1.04
 7      TGTTTTAGCT  switch fluorescence ratio     0.973
 8      CTGAATACGT  switch fluorescence ratio      1.01
 9      TACATAAGTT  switch fluorescence ratio      1.02
10      ATAAGTGGGA  switch fluorescence ratio     0.986
11      AAAGTTCGGC  switch fluorescence ratio      1.06
12      GGGAATACTT  switch fluorescence ratio         1
13      CGGGTATGGA  switch fluorescence ratio      1.02
14      GGGAGTTTAG  switch fluorescence ratio     0.994
15      ATAGGCGGAG  switch fluorescence ratio     0.965
16      GGTGGGTGAG  switch fluorescence ratio     0.975
17      TAATGTGTGG  switch fluorescence ratio     0.988
18       AAGTCTACG  switch fluorescence ratio      1.04
19      GGGTTGGACT  switch fluorescence ratio     0.999
20      TTGCGACACC  switch fluorescence ratio      1.06
21      TTACTTGTGG  switch fluorescence ratio     0.988
22      GGGCTGCCGA  switch fluorescence ratio      1.03
23      TTGCTGGGGG  switch fluorescence ratio      1.01
24      GCGTATGTAC  switch fluorescence ratio      1.21
25      GACTCTATGG  switch fluorescence ratio     0.943
26       TAAAATACA  switch fluorescence ratio     0.983
27      ATGAAGTAGG  switch fluorescence ratio     0.989
28      ACCGACGCGG  switch fluorescence ratio      2.55
29      TCGGCGGGCG  switch fluorescence ratio     0.986
30      TTAAGTGTGG  switch fluorescence ratio     0.973
31      TCGAAGCCGG  switch fluorescence ratio     0.977
32      GTTTTGATTG  switch fluorescence ratio         1
33      GCTGGGCGGA  switch fluorescence ratio      1.04
34      TCGAAATAGG  switch fluorescence ratio         1
35      TGGGGGATTC  switch fluorescence ratio      1.03
36      TTTATGGGAA  switch fluorescence ratio      1.01
37      TATGCTGAAT  switch fluorescence ratio         1
38      GGGGGAGCAG  switch fluorescence ratio     0.981
39      ATATCATTCA  switch fluorescence ratio      1.01
40      TTACTAGGCC  switch fluorescence ratio      1.01
41      TTGTAGGTTT  switch fluorescence ratio      1.58
42      AGCTTCATTC  switch fluorescence ratio      1.06
43      TTCCGTTTTT  switch fluorescence ratio      1.51
44      GGAATGTTTT  switch fluorescence ratio     0.994
45      GAGCTTCTGT  switch fluorescence ratio         1
46      GGGCTTTATA  switch fluorescence ratio      1.02
47      AAATCTGTAG  switch fluorescence ratio     0.985
48      GGTCGCTGCG  switch fluorescence ratio     0.996
49      GGATTTGGCT  switch fluorescence ratio     0.999
50       ACGGGGGTG  switch fluorescence ratio      1.04
51      GGTCCGGGGG  switch fluorescence ratio      1.02
52      GAGATTGGTG  switch fluorescence ratio         1
53      TTATAGCAGT  switch fluorescence ratio      1.06
54      GTTAAATGGT  switch fluorescence ratio         1
55      ATCATTGGGC  switch fluorescence ratio     0.988
56      CTAATTATGA  switch fluorescence ratio      1.01
57      GGCCGAGTTA  switch fluorescence ratio      1.01
58      GTGTGACAAC  switch fluorescence ratio     0.975
59      ATGGTGTCTT  switch fluorescence ratio     0.961
60      GAGTCACAGT  switch fluorescence ratio         1
61      TTCATAGGGG  switch fluorescence ratio     0.988
62       GCTGTAACG  switch fluorescence ratio         1
63      TCAAGAGCTG  switch fluorescence ratio      1.08
64      ATCTCACAGA  switch fluorescence ratio     0.989
65      GCTGAAGTTT  switch fluorescence ratio     0.979
66      TTCATCGGCT  switch fluorescence ratio      1.34
67      TTGAGAAGGG  switch fluorescence ratio      1.04
68      AAGGTAGAAA  switch fluorescence ratio      1.03
69      GACGTTGGGG  switch fluorescence ratio     0.977
70      CGTTATTCAC  switch fluorescence ratio      1.03
71      ACCTTAAGGG  switch fluorescence ratio      1.01
72      TCGTTTTGAG  switch fluorescence ratio     0.971
73      ATTTTTGCGT  switch fluorescence ratio      1.01
74      CGGGGCGGTT  switch fluorescence ratio         1
75      ATAGGCTAAA  switch fluorescence ratio      1.04
76      CAAATAAACC  switch fluorescence ratio      1.03
77      TAAATGGGGG  switch fluorescence ratio     0.979
78      TGAAAAACAC  switch fluorescence ratio      1.12
79      GATGGGATGC  switch fluorescence ratio      1.07
80      TGGGTAGGTG  switch fluorescence ratio      1.11
81      CCCATCCATC  switch fluorescence ratio      1.03
82      TGTGAGCTGT  switch fluorescence ratio      1.01
83      TATCTGTCAA  switch fluorescence ratio      1.11
84      CATTTCGTTT  switch fluorescence ratio     0.957
85      AAGAGGGCAT  switch fluorescence ratio      1.01
